Molecular target: mutant form of the human GPR119 receptor (Homo sapiens, UniProt Q8TDV5, S329A/T327A)
Construct: X1, the printed 24-residue N-terminal leader ([…]) that replaces Met1; (N)
Sequence (Q8TDV5 2-335 T327A/S329A): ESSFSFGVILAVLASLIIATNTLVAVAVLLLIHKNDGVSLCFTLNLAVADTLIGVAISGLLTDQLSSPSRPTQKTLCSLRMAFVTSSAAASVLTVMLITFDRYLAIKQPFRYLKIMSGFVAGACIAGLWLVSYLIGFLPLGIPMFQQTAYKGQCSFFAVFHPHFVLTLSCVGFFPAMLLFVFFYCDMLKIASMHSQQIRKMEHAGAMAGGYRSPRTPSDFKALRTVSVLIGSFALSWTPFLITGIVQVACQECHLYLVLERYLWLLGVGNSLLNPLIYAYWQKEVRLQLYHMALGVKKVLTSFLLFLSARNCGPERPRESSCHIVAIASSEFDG
Assay: LANCE cAMP-384 assay in HEK293 cells stably expressing mutant human GPR119
Conditions: mutant human GPR119 (SEQ ID No. 1), 20 min at 37 C
experimentalReadout: pEC50
Lab note — pEC50 values are minus log10 of concentrations in M.

pEC50 lookup needed for Cc1ncn(-c2cnc(C(=O)N(C3CC3)[C@@H]3CCN(CC4(C(F)(F)F)CC4)C[C@@H]3F)cn2)n1 (single isomer, unassigned) , thanks.
7.52

Requested field: pEC50. Item: O=C(c1ccc(-n2cncn2)c(F)c1)N(C1CC1)[C@@H]1CCN(CC2(C(F)(F)F)CC2)C[C@@H]1F (single isomer, unassigned)
8.00

Which pEC50 reading was recorded for the compound Cc1nccn1-c1ncc(C(=O)N(C2CC2)[C@@H]2CCN(CC3(C(F)(F)F)CC3)C[C@@H]2F)cn1 (single isomer, unassigned) ?
7.57

Give the measured pEC50 of Cc1nnnn1-c1ccc(C(=O)N(C2CC2)[C@@H]2CCN(CC3(C(F)(F)F)CC3)C[C@@H]2F)cn1 (single isomer, unassigned) .
7.92
